substrate: CC(C)C[C@H](N)C(=O)Nc1ccc([N+](=O)[O-])cc1; test: purified protein; format: biochemical, Pyrococcus horikoshii; conditions: pH 7.5 (20 mM Tris, 100 mM NaCl), 50 °C, 2.8% DMSO, 0.1-6.4 mM substrate
ASSAY_METRIC: kcat (s⁻¹)

- PROTEIN: "TET2 (Pyrococcus horikoshii OT3; H123F) (protein, full length, 353 residues per subunit, pET41c in E. coli BL21(DE3), no tag mentioned (heat step, Resource Q, Superdex 200), 39 kDa subunit, 468 kDa homododecamer, two Zn per active site) MEVRNMVDYELLKKVVEAPGVSGYEFLGIRDVVIEEIKDYVDEVKVDKLGNVIAHKKGEGPKVMIAAHMDQIGLMVTHIEKNGFLRVAPIGGVDPKTLIAQRFKVWIDKGKFIYGVGASVPPFIQKPEDRKKAPDWDQIFIDIGAESKEEAEDMGVKIGTVITWDGRLERLGKHRFVSIAFDDRIAVYTILEVAKQLKDAKADVYFVATVQEEVGLRGARTSAFGIEPDYGFAIDVTIAADIPGTPEHKQVTHLGKGTAIKIMDRSVICHPTIVRWLEELAKKHEIPYQLEILLGGGTDAGAIHLTKAGVPTGALSVPARYIHSNTEVVDERDVDATVELMTKALENIHELKI"
  VAL: 26.6
